Some compounds, each annotated with its measured Population Tubulin-Different-Phenotype (%).
# System: Fibroblast
# PROCEDURE DETAILS: Multiplex assay against human fibroblast
# Format: toxicity, cell-based
# CONDITION LABEL: 24 h, 10 µM, compound concentration 10 uM, replicate 1
I only need the number, in %, no unit after it.

>>> value_reported("Oc1cccc(-c2nc(N3CCOCC3)c3oc4ncccc4c3n2)c1")
70
>>> value_reported("CC(Cc1ccc(O)c(O)c1)C(C)Cc1ccc(O)c(O)c1 (stereo not given) [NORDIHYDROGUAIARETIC ACID]")
7
>>> value_reported("Cc1c(Nc2ccc(S(=O)(=O)N3CCN(C)CC3)cc2F)nc2ccc(Nc3cnn(C4CC4)c3)cn2c1=O")
3
>>> value_reported("N#CCNC(=O)c1ccc(-c2ccnc(Nc3ccc(N4CCOCC4)cc3)n2)cc1")
46

Attention now shifts to the item below.
Request the reported Population Tubulin-Different-Phenotype (%) associated with CCCCN(CC)c1nc(C)nc2c1c(C)cn2-c1c(C)cc(C)cc1C.Cl
88

----------
# Test system: Fibroblast
# PROCEDURE DETAILS: Multiplex assay against human fibroblast
# Format: toxicity, cell-based
# CONDITION LABEL: 12 h, 1 µM, compound concentration 1 uM, replicate 2
Some molecules, each annotated with its measured Population Normal (%).

Illustrative cases are given below, each with its answer.
>>> value_reported("CC(C)c1cc(Nc2nc(N3CCC[C@H](N)C3)ncc2C(N)=O)cc(C(C)C)n1")
"90%"
>>> value_reported("CCCc1cc(C)[nH]c(=O)c1CNC(=O)c1cc(-c2ccc(N3CCN(C(C)C)CC3)nc2)cc2c1cnn2C(C)C")
"89%"

Attention now shifts to the item below.
Request the reported Population Normal (%) associated with C[C@@H](Oc1cc(-n2cnc3ccc(CN4CCN(C)CC4)cc32)sc1C(N)=O)c1ccccc1C(F)(F)F
95%

----------
# System: HEK-293T
# PROCEDURE DETAILS: Multiplex assay against HEK293T
# Format: toxicity, cell-based
# CONDITION LABEL: human, 12 h, 1 µM, compound concentration 1 uM, replicate 2
# label = y if Population Hoechst High Intensity Objects (%) < 5% else n

>>> discrete_label("Cc1ccc(S(=O)(=O)NC2c3ccccc3Oc3ccccc32)cc1")
"y"
>>> discrete_label("CCOC(=O)CCNc1cc(N2CCc3ccccc3CC2)nc(-c2ccccn2)n1")
"y"
>>> discrete_label("CC(C)c1cc(Nc2nc(N3CCC[C@H](N)C3)ncc2C(N)=O)cc(C(C)C)n1")
"n"
>>> discrete_label("N#Cc1cccc(C(=O)Nc2cc(-c3ccccc3)nn2-c2ccccc2)c1")
"n"

Consider CCCc1cc(C)[nH]c(=O)c1CNC(=O)c1cc(-c2ccc(N3CCN(C(C)C)CC3)nc2)cc2c1cnn2C(C)C . Does its Population Hoechst High Intensity Objects (%) lie strictly below 5%?
y

----------
# Tested on: Fibroblast
# PROCEDURE DETAILS: Multiplex assay against human fibroblast
# Format: toxicity, cell-based
# CONDITION LABEL: 48 h, 10 µM, compound concentration 10 uM, replicate 2
Some compounds, each annotated with its measured Population Healthy Nuclei (%).
I only need the number, in %, no unit after it.

Illustrative cases are given below, each with its answer.
>>> value_reported("CN1C(=O)[C@@H](NC(=O)c2cc3ccccc3[nH]2)N=C(c2ccccc2)c2ccccc21 [DEVAZEPIDE]")
61
>>> value_reported("CN1CCN(Cc2ccc(-c3cnc4[nH]cc(-c5ccc6[nH]ccc6c5)c4c3)cc2)CC1")
11
>>> value_reported("CCCc1cc(C)[nH]c(=O)c1CNC(=O)c1cc(-c2ccc(N3CCN(C(C)C)CC3)nc2)cc2c1cnn2C(C)C")
41

Attention now shifts to the item below.
Request the reported Population Healthy Nuclei (%) associated with Cc1c(P(=S)(c2ccccc2)c2ccccc2)n2ccccc2[n+]1C/C=C/c1ccccc1.[Br-]
18
